For each record, write down the corresponding RAMPO Score.
study system: T1, His-tagged P3028 peptide (PGE73) (human)
T1 construct: albumin-derived peptide, in solution at 0.5 ug/mL; not shown: His-tag
T1 peptide: VFDEFKPLVEEPQNLIK
experiment description: PEPSCAN ELISA, peptide on card
Give bare numbers.

Consider the worked cases shown below.
[
  {
    "binder": "KKLDTFFVKLSLFHER [SEQ ID NO: 378 KKLDTFFVKLSLFHER]",
    "RAMPO Score": 463
  },
  {
    "binder": "KKLDYFFVKLSLFTER [SEQ ID NO: 312 KKLDYFFVKLSLFTER]",
    "RAMPO Score": 425
  },
  {
    "binder": "KKLATFFVKLSLFTER [SEQ ID NO: 298 KKLATFFVKLSLFTER]",
    "RAMPO Score": 494
  },
  {
    "binder": "KKLDTVFVKLSLFTER [SEQ ID NO: 319 KKLDTVFVKLSLFTER]",
    "RAMPO Score": 547
  }
]

Now turn to the next binder.
Data request, read-out RAMPO Score, for IKLDTFFVKLSLFTER [SEQ ID NO: 273 IKLDTFFVKLSLFTER]
483
